Recorded values, source patent US5326867A.

tested on: Aspergillus fumigatus
Assign MIC to each entry below.

Previously resolved entries follow.
CN[C@@H]1[C@H](O[C@@H]2OC[C@@H](O)[C@H](O)[C@H]2O)[C@@H](O)[C@H](O[C@H]2c3cc(C)c(C(=O)N[C@@H](CO)C(=O)O)c(O)c3-c3c(cc4c(c3O)C(=O)c3cc(OC)cc(O)c3C4=O)[C@@H]2O)O[C@@H]1C : > 100 µg/mL
CN[C@@H]1[C@H](O[C@@H]2OC[C@@H](O)[C@H](O)[C@H]2O)[C@@H](O)[C@H](O[C@H]2c3cc(C)c(C(=O)N[C@H](Cc4ccc(O)c(O)c4)C(=O)O)c(O)c3-c3c(cc4c(c3O)C(=O)c3cc(OC)cc(O)c3C4=O)[C@@H]2O)O[C@@H]1C : > 50 µg/mL
COc1cc(O)c2c(c1)C(=O)c1c(cc3c(c1O)-c1c(cc(C)c(C(=O)N[C@@H](CO)C(=O)O)c1O)[C@H](O[C@@H]1O[C@H](C)[C@H](O)[C@H](O[C@@H]4OC[C@@H](O)[C@H](O)[C@H]4O)[C@H]1O)[C@H]3O)C2=O : > 100 µg/mL

For the next question, use this compound.
Consider CN[C@@H]1[C@H](O[C@@H]2OC[C@@H](O)[C@H](O)[C@H]2O)[C@@H](O)[C@H](O[C@H]2c3cc(C)c(C(=O)N[C@H](Cc4cnc[nH]4)C(=O)O)c(O)c3-c3c(cc4c(c3O)C(=O)c3cc(OC)cc(O)c3C4=O)[C@@H]2O)O[C@@H]1C . Its measured MIC is 50 µg/mL
